- Tested on: HOP-62
- measurementProtocol: NCI tumour cell line growth inhibition, 48 h
Activity calls are given as the source filed them. No stated cut-off is given here; in the data, active = GI50 up to about 1.1 µM and inactive = higher.
attributeMeasured: GI50

# example entries with known answers
The recorded GI50 for entry CC(C)(C)c1ccc(O)c(CN(Cc2cc(C(C)(C)C)ccc2O)C2CCCCC2)c1 equals 18.5 µM (inactive)

// GI50 lookup, compound = COc1ccc2c(-c3ccc(O)cc3)c(Oc3ccc(Cl)cc3)c(=O)oc2c1 , result: 12.9 µM (inactive)

Field GI50 (entry CCN(CC)CCNC(=O)c1cc2cc(NC(=O)c3cc4cc(NC(=O)c5cc6cc(N)ccc6[nH]5)ccc4[nH]3)ccc2[nH]1 ) reads > 100 µM (inactive)

Kindly note the recorded GI50 for CCCCNC(=O)OCCN=C1c2ccccc2C(Br)C(Br)c2ccccc21 (centres undefined) , which is 25.9 µM (inactive)

Record COc1ccc(-c2cc(O)c3cc4c(cc3n2)OCO4)c(OC)c1 , field GI50: 73.1 µM (inactive)

Further cases:
Entry CCOC(=O)C(NC(=O)c1cccc(Cl)c1)(Nc1ccc(S(=O)(=O)Nc2cc(C)on2)cc1)C(F)(F)F (centres undefined) , GI50 reported as > 100 µM (inactive)

Reported GI50 ( CN1c2ccccc2N(C(=O)c2ccc([N+](=O)[O-])cc2)C(CC(=O)O)c2cccn21 (centres undefined) ) = > 100 µM (inactive)

GI50 recorded for this compound, FC(F)(F)c1ccc2c(c1)nc(Cc1ccc(Cl)c(Cl)c1)n2CC1CCCN2CCCCC12 (centres undefined) , is 31 µM (inactive)

Entry under test: COc1cc(I)c2c3c1OC1C34CCN(C)C(C2)C4=CC(I)C1(OC)OC (centres undefined) . Its GI50 was 19.1 µM (inactive)

----------
- Tested on: COLO 205
- measurementProtocol: NCI tumour cell line growth inhibition, 48 h
Calls of active or inactive are those of the source. No stated cut-off is given here; in the data, active = GI50 up to about 1.1 µM and inactive = higher.
Hello, when you answer, please use one of the following outcomes: active, inactive

Worked cases, answers included:
Task: Per the assay record, what outcome was assigned to NNC(=S)NCCNC(=S)NN ?
Result: inactive

Task: What call does the record list for COc1cc2c(c(OC)c1OC)-c1ccc(SC)c(=O)cc1[C@@H](NC(=O)c1ccc(F)cc1)CC2 ?
Result: active

New cases:
Task: Which outcome was entered for the compound COC(=O)[C@]1(C)CCCn2c(=O)n(-c3ccccc3)c(=O)n21 in this test?
Result: inactive

Task: # outcome recorded in this test, key = O=C(Nc1ccccc1)O/N=C1/CCCC/C1=C\c1ccccc1
Result: inactive

Task: Returns: the outcome recorded for CCOc1cc(C=O)ccc1O [ETHYL VANILLIN] in this assay.
Result: inactive

Task: Hey, what did the test say about COc1cc(/C=C2\C(=O)N(c3ccc(Cl)cc3)C(c3ccccc3)S2(=O)=O)cc(OC)c1OC (stereo unspecified) ?
Result: inactive

Task: Would you mind telling me which call this test gave O=C1/C(=C/c2ccc(Cl)cc2)N=C(c2ccccc2)N1c1nc2ccc(Sc3ccccc3)cc2[nH]1 ?
Result: inactive

Task: Give the logged outcome of this assay for the following compound: O=c1cnnc2sc(=S)[nH]n12
Result: inactive

Task: Returns: the outcome recorded for COC(=O)C(=CNC(N)=O)C(=O)OC in this assay.
Result: inactive

Task: Short answer needed: outcome of this test for COc1ccc2cc(C(C)C(=O)N3CCOC3=O)ccc2c1 (stereo unspecified) ?
Result: inactive

Task: Outcome logged for COc1cc2c(c(OC)c1OC)-c1ccc(OC)c(=O)cc1C(NC(=O)COc1ccccc1)CC2 (stereo unspecified) in this assay:
Result: active

Sourced from ChEMBL document CHEMBL1201862
